// 6-keto Prostaglandin F1α release, Maximum Inhibition (% Inhibition), N = 1 (200 nM) lookup, one value per entry
Molecular target: human KDR (human, UniProt P35968 20-1356)
Sequence (P35968 20-1356): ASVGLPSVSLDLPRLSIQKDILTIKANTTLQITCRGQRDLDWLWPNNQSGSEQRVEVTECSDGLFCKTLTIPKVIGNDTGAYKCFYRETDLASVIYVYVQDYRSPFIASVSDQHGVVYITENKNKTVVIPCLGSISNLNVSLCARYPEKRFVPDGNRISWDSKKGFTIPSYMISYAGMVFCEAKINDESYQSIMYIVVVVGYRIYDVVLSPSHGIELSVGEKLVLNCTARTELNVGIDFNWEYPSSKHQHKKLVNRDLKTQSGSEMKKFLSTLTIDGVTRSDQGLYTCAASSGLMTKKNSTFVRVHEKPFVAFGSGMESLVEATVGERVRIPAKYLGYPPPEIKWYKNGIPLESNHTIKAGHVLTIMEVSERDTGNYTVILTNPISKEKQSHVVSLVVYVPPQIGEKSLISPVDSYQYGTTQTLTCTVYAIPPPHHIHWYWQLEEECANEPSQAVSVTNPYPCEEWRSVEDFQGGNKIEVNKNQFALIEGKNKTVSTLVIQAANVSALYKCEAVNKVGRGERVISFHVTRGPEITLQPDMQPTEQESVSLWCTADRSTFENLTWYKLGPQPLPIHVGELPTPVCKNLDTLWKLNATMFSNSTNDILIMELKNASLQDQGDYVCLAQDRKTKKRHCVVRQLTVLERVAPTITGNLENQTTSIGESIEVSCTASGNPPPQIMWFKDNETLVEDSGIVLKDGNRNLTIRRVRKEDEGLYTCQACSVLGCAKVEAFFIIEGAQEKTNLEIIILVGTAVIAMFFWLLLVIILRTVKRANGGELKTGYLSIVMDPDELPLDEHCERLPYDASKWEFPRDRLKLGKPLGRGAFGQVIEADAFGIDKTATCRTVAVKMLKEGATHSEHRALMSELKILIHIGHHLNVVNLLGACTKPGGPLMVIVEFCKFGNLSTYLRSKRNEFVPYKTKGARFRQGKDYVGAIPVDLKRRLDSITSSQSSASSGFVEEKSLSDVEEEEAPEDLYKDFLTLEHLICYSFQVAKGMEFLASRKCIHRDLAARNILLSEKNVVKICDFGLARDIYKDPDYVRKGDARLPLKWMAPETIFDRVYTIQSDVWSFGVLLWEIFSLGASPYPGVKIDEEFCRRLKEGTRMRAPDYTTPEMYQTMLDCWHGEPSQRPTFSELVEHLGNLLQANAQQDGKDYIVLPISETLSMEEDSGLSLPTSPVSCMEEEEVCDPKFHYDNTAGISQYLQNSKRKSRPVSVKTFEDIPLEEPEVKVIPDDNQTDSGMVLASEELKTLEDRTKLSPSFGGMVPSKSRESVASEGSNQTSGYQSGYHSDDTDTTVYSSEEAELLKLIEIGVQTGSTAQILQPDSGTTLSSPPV
Assay: cell-based or functional assay
Please state the figure in %; there is no need to write the unit.

{"columns": ["binder", "recorded-value"],
 "data": [
  ["21H6 (antibody, V domains shown, Fully human monoclonal antibody from a XenoMouse hybridoma, purified) VH: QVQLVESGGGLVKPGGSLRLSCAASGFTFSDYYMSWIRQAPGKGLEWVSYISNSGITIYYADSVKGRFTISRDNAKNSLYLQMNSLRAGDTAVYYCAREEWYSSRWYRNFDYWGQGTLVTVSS VL: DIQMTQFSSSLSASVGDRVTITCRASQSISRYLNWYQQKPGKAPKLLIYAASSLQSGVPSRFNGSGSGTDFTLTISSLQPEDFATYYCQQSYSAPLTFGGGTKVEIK", 80]
]}

Now for the binder whose 6-keto Prostaglandin F1α release, Maximum Inhibition (% Inhibition), N = 1 (200 nM) we want.
Can you look up the measured 6-keto Prostaglandin F1α release, Maximum Inhibition (% Inhibition), N = 1 (200 nM) of 33B1 (antibody, V domains shown, Fully human monoclonal antibody from a XenoMouse hybridoma (IgG2 or IgG4 strain), purified) VH: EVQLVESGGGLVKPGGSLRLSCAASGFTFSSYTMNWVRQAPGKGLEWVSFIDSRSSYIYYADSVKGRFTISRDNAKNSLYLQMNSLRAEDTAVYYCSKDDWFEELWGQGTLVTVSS VL: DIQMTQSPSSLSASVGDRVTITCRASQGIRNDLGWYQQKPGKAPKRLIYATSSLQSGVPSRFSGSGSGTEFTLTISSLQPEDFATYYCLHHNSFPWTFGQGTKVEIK for me? 31
